# measurement description: pKa of secondary dye
# Format: physicochemical
# test conditions: second pKa of the dye

[
  {
    "compound": "O=[N+]([O-])c1cc(C2(c3cc(Br)c(O)c(I)c3)OS(=O)(=O)c3c(Br)c(Br)c(Br)c(Br)c32)cc(Br)c1O (stereo not shown) [Secondary dye 7]",
    "pKa": 1.6
  },
  {
    "compound": "O=S1(=O)OC(c2cc(Br)c(O)c(Br)c2)(c2cc(Br)c(O)c(Br)c2)c2c(Br)c(Br)c(Br)c(Br)c21 [Secondary dye 2, Tetrabromophenol blue]",
    "pKa": 3.5
  },
  {
    "compound": "O=[N+]([O-])c1cc(C2(c3cc(Br)c(O)c([N+](=O)[O-])c3)OS(=O)(=O)c3c(Br)c(Br)c(Br)c(Br)c32)cc(Br)c1O [Secondary dye 6]",
    "pKa": 1.6
  },
  {
    "compound": "O=S1(=O)OC(c2cc(Cl)c(O)c(Br)c2)(c2cc(Cl)c(O)c(Br)c2)c2ccccc21 [Secondary dye 3, Bromochlorophenol blue]",
    "pKa": 3.8
  },
  {
    "compound": "O=S1(=O)OC(c2cc(I)c(O)c(I)c2)(c2cc(I)c(O)c(I)c2)c2ccccc21 [Secondary dye 4, Tetraiodophenolsulfonephthalein]",
    "pKa": 4.0
  },
  {
    "compound": "O=[N+]([O-])c1cc(C2(c3cc(I)c(O)c([N+](=O)[O-])c3)OS(=O)(=O)c3c(Br)c(Br)c(Br)c(Br)c32)cc(I)c1O [Secondary dye 5]",
    "pKa": 1.5
  },
  {
    "compound": "O=S1(=O)OC(c2cc(Br)c(O)c(Br)c2)(c2cc(Br)c(O)c(Br)c2)c2ccccc21 [Secondary dye 1, Bromophenol blue]",
    "pKa": 3.7
  }
]
